// provenance: PubChem BioAssay (EPA / NIEHS)

experiment: APR_HepG2_P-H2AX_72hr: Apredica 72-hour HepG2 Assay for H2AX Phosphorylation (AID 2282916); conditions: imaging, actives raise or lower the signal;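 also: phospho-histone H2A.x immunostain intensity per cell marking DNA damage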
Activity calls are given as the source filed them. The calls were made as follows: active = hit-call score of the fitted dose curve at least 0.9, where 1 is the maximum; inactive = score below 0.9.
Outcomes: yes for active, no for inactive

CC(=O)[C@H]1CC[C@H]2[C@@H]3CCC4=CC(=O)CC[C@]4(C)[C@H]3CC[C@]12C | yes
CCOC(=O)[C@H](C)Oc1ccc(Oc2nc3ccc(Cl)cc3o2)cc1 | no
CC(=O)S[C@@H]1CC2=CC(=O)CC[C@]2(C)[C@H]2CC[C@@]3(C)[C@@H](CC[C@@]34CCC(=O)O4)[C@H]12 | yes
COC(=O)CSc1cc(N=c2sc(=O)n3n2CCCC3)c(F)cc1Cl | no
S=C([S-])NCCNC(=S)[S-].[Mn+2] | no
